The reported numbers originate from ChEMBL document CHEMBL1201862.

Assignment: determine reported AC50 for the given compounds.
ASSAY_SYSTEM: Cytochrome P450 1A2 (Homo sapiens, UniProt P05177)
Sequence (P05177 whole entry): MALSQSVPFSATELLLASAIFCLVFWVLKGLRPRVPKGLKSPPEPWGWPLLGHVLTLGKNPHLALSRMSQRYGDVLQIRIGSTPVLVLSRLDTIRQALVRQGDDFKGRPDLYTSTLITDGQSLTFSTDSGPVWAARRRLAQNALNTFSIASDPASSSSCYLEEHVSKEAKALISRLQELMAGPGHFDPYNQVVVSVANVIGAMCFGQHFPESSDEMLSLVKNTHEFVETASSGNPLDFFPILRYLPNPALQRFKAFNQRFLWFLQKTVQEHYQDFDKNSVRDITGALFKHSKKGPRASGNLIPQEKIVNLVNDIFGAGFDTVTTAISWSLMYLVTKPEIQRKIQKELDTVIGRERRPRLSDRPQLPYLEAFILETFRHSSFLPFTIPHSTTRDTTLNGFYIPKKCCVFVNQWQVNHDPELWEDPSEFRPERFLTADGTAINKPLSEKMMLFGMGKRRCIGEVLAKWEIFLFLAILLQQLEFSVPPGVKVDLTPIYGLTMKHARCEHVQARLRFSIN

Give AC50 for `Cn1c(=O)n(C)c2cc(/C=N/NC(=O)c3ccc(Cl)cc3Cl)ccc21` tested on Cytochrome P450 1A2 (Homo sapiens, UniProt P05177).
14.1 µM (inconclusive)

GET AC50 where system = Cytochrome P450 1A2 (Homo sapiens, UniProt P05177) and item = `Cc1sc(N/N=C/C=C/c2ccccc2)nc1-c1ccccc1`
3.55 µM (inconclusive)

Find the measured AC50 of `COc1cccc(Cn2c(=O)c(-c3cccs3)nc3cnc(OCc4ccccc4)nc32)c1` with Cytochrome P450 1A2 (Homo sapiens, UniProt P05177) as test system.
1.58 µM (inconclusive)

Quote AC50 with test system Cytochrome P450 1A2 (Homo sapiens, UniProt P05177) for CCC12CN3CC(CC)(CN(C1)C3c1cccnc1)C2=O (stereo not given)
28.2 µM (inconclusive)

Give AC50 for this entry on Cytochrome P450 1A2 (Homo sapiens, UniProt P05177): Cc1cc(C)c(S(=O)(=O)NCC2CCC(C(=O)NCc3ccc4c(c3)OCO4)CC2)c(C)c1 (stereo not given)
17.8 µM (inconclusive)

Recall the reported AC50 of `CCn1c(C)cc(/C=C2\SC(=O)N(CC(=O)Nc3ccc(C)c(C)c3)C2=O)c1C` when tested on Cytochrome P450 1A2 (Homo sapiens, UniProt P05177).
8.91 µM (inconclusive)

Give reported AC50 for N[C@@H](Cn1oc(=O)[nH]c1=O)C(=O)O [QUISQUALATE] (Cytochrome P450 1A2 (Homo sapiens, UniProt P05177))
39.8 µM (inconclusive)

Write down measured AC50 (Cytochrome P450 1A2 (Homo sapiens, UniProt P05177)) for this compound. `COc1ccc(-c2nc3cnc(N4CCOCC4)nc3n(C[C@H]3CCCO3)c2=O)cc1`
5.01 µM (inconclusive)

Recall the reported AC50 of `Cc1nonc1NCn1nnc2ccccc21` when tested on Cytochrome P450 1A2 (Homo sapiens, UniProt P05177).
8.91 µM (inconclusive)

# return AC50 of `Cc1ccc(C(=O)NC(=S)Nc2cc(C(F)(F)F)ccc2Cl)cc1` (system: Cytochrome P450 1A2 (Homo sapiens, UniProt P05177))
0.562 µM (inconclusive)

Give AC50 only, for `Cc1ccc(-c2nc3ncccn3c2NC(=O)C2CC2)cc1` , using Cytochrome P450 1A2 (Homo sapiens, UniProt P05177) data.
15.8 µM (inconclusive)

// output AC50; input `CC(C)(C)NC[C@@H](O)COc1cccc2[nH]c(C#N)cc12` ; system Cytochrome P450 1A2 (Homo sapiens, UniProt P05177)
31.6 µM (inconclusive)

Find AC50 for CCCc1nnc(NC(=O)C(CC)OC(=O)c2cc(C)nc3ccccc23)s1 (stereo not given) on Cytochrome P450 1A2 (Homo sapiens, UniProt P05177) and write it down.
15.8 µM (inconclusive)

State, for Cytochrome P450 1A2 (Homo sapiens, UniProt P05177), measured AC50 of the compound listed here: `CCOc1nc(NC(C)C)nc(NC(C)C)n1`
5.01 µM (inconclusive)

Quote Cytochrome P450 1A2 (Homo sapiens, UniProt P05177) AC50 for entry `CN(C)CCCN1c2ccccc2Sc2cnccc21` .
0.501 µM (inconclusive)

For Cytochrome P450 1A2 (Homo sapiens, UniProt P05177), give AC50 of the listed compound: C/C(=N\NC(=O)C1CC1c1ccccc1)c1cccs1 (stereo not given)
15.8 µM (inconclusive)

Give AC50 for this entry on Cytochrome P450 1A2 (Homo sapiens, UniProt P05177): `COc1ccc(C(=O)Nn2cnc3ccccc3c2=O)c(OC)c1`
11.2 µM (inconclusive)

# lookup: Cytochrome P450 1A2 (Homo sapiens, UniProt P05177) AC50, key = `Cc1ccc2c(c1)-c1c(cnn1CC(=O)O)CO2`
0.794 µM (inconclusive)

Give the observed AC50 of `NS(=O)(=O)c1cc(Br)c(/N=N\c2ccc(O)c3ncccc23)c(Br)c1` for Cytochrome P450 1A2 (Homo sapiens, UniProt P05177).
1.26 µM (inconclusive)

Quote AC50 with test system Cytochrome P450 1A2 (Homo sapiens, UniProt P05177) for `CN1CCN(c2ncncc2-c2ccccc2Cl)CC1`
2.51 µM (inconclusive)

# return AC50 of `COc1ccc(-n2c(=O)c(CCc3ccccc3)nc3cnc(N(C)C)nc32)cc1` (system: Cytochrome P450 1A2 (Homo sapiens, UniProt P05177))
3.16 µM (inconclusive)

# lookup: Cytochrome P450 1A2 (Homo sapiens, UniProt P05177) AC50, key = `Cc1nc(NC(=O)c2ccccc2)sc1-c1csc(Nc2ccc(Cl)cc2)n1`
7.08 µM (inconclusive)

# return AC50 of `O=C(CCN1CCc2ccccc2C1)Nc1ccc(F)cc1` (system: Cytochrome P450 1A2 (Homo sapiens, UniProt P05177));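 also: PubChem cytochrome P450 panel assay, CYP1A2 panel member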
0.398 µM (inconclusive)

Give Cytochrome P450 1A2 (Homo sapiens, UniProt P05177) AC50 for the following compound: Cc1ccc(C2C(=O)N(C3CCCC3)CC(=O)N2CC2COc3ccccc3O2)cc1 (stereo not given)
39.8 µM (inconclusive)

Give Cytochrome P450 1A2 (Homo sapiens, UniProt P05177) AC50 for the following compound: `COc1ncc2nc(-c3cn(C)c4ccccc34)c(=O)n(-c3ccccc3)c2n1`
5.01 µM (inconclusive)
